Values from patent US4694069A

# Test system: S. faecalis 34358
# experimentNotes: In vitro MIC, standard microtiter assay
# Format: cell-based, Streptococcus faecalis
# testParameters: Table B
Would you kindly list MIC for each of these compounds?
Answer in µg/mL, number only, no unit symbol.

IN: For CN[C@H](CC(C)C)C(=O)N[C@H]1C(=O)N[C@@H](CC(N)=O)C(=O)N[C@H]2C(=O)N[C@H]3C(=O)N[C@H](C(=O)N[C@H](C(=O)O)c4cc(O)cc(O)c4-c4cc3ccc4O)[C@H](O)c3ccc(c(Cl)c3)Oc3cc2cc(c3O[C@@H]2O[C@H](CO)[C@@H](O)[C@H](O)[C@H]2O[C@H]2C[C@](C)(N)[C@H](O)[C@H](C)O2)Oc2ccc(cc2Cl)[C@H]1O , what is its reported MIC?
OUT: 3.1

IN: Then this compound: CNC1C(=O)NC2C(=O)NC(C(=O)NC3C(=O)NC4C(=O)NC(C(=O)NC(C(=O)O)c5cc(O)cc(OC6OC(CO)C(O)C(O)C6O)c5-c5cc4ccc5O)C(O)c4cc(Cl)c(c(Cl)c4)Oc4cc3cc(c4OC3OC(CO)C(O)C(O)C3NC(=O)CCCCCCCC(C)C)Oc3ccc(cc3Cl)C2O)c2cc(cc(O)c2Cl)Oc2cc1ccc2O (centres unmarked)
OUT: 0.2

====

Would you kindly list MIC for each of these compounds?
# System: S. faecalis 34358
# experimentNotes: In vitro MIC, standard microtiter assay
# Assay type: cell-based, Streptococcus faecalis
# testParameters: Table B

IN: For CCCCCCCCCC(=O)NC1C(Oc2c3cc4cc2Oc2c(Cl)cc(cc2Cl)C(O)C2NC(=O)C(NC(=O)C4NC(=O)C4NC(=O)C(NC(=O)C(NC)c5ccc(O)c(c5)Oc5cc(O)c(Cl)c4c5)C(O)c4ccc(c(Cl)c4)O3)c3ccc(O)c(c3)-c3c(OC4OC(CO)C(O)C(O)C4O)cc(O)cc3C(C(=O)O)NC2=O)OC(CO)C(O)C1O (stereo not drawn) , what is its reported MIC?
OUT: 0.4 µg/mL

IN: Then this compound: CCCCCCCCCC(=O)NC1C(Oc2c3cc4cc2Oc2c(Cl)cc(cc2Cl)C(O)C2NC(=O)C(NC(=O)C4NC(=O)C4NC(=O)C(NC(=O)C(NC)c5ccc(O)c(c5)Oc5cc(O)c(Cl)c4c5)C(O)c4ccc(c(Cl)c4)O3)c3ccc(O)c(c3)-c3c(OC4OC(CO)C(O)C(O)C4O)cc(O)cc3C(C(=O)O)NC2=O)OC(C(=O)O)C(O)C1O (stereo not drawn)
OUT: 0.4 µg/mL

IN: Then this compound: CNC1C(=O)NC2C(=O)NC(C(=O)NC3C(=O)NC4C(=O)NC(C(=O)NC(C(=O)O)c5cc(O)cc(OC6OC(CO)C(O)C(O)C6O)c5-c5cc4ccc5O)C(O)c4cc(Cl)c(c(Cl)c4)Oc4cc3cc(c4OC3OC(CO)C(O)C(O)C3NC(=O)CCCCCCCCC(C)C)Oc3ccc(cc3Cl)C2O)c2cc(cc(O)c2Cl)Oc2cc1ccc2O (stereo not drawn)
OUT: 0.2 µg/mL
